Recorded values, source patent US20240182536A1.

- assayed system: T1, interleukin 18 binding protein (IL-18BP) (UniProt O95998 31-194); further: unit not given here
- T1 sequence (looked up): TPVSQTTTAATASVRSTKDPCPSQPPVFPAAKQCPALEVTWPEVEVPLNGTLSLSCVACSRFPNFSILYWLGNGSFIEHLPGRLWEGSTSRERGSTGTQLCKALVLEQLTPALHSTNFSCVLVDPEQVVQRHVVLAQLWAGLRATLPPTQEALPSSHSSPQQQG
- assay overview: cell-based or functional assay
Task for the reader: assign each of the following binders its reported HEK-Blue activity, +100 nM BP, DF-100,000.
Form: value (number only, do not type unit).

Reported HEK-Blue activity, +100 nM BP, DF-100,000 ( IL-18 variant S36Q, D40T, K53P, S55L (ligand) YFGKLESKLSVIRNLNDQVLFIDQGNRPLFEDMTDQDMRTNAPRTIFIISMYPDLQPRGMAVTISVKSEKISTLSSENKIISFKEMNPPDNIKDTKSDIIFFQRSVPGHDNKMQFESSSYEGYFLASEKERDLFKLILKKEDELGDRSIMFTVQNED ) = 0.09

Reported HEK-Blue activity, +100 nM BP, DF-100,000 ( IL-18 variant K53G, S55V, R104Y, H109N (ligand) YFGKLESKLSVIRNLNDQVLFIDQGNRPLFEDMTDSDMRDNAPRTIFIISMYGDVQPRGMAVTISVKSEKISTLSSENKIISFKEMNPPDNIKDTKSDIIFFQYSVPGNDNKMQFESSSYEGYFLASEKERDLFKLILKKEDELGDRSIMFTVQNED ) = 0.14

Reported HEK-Blue activity, +100 nM BP, DF-100,000 ( IL-18 variant L15I, K53H, S55M (ligand) YFGKLESKLSVIRNINDQVLFIDQGNRPLFEDMTDSDMRDNAPRTIFIISMYHDMQPRGMAVTISVKSEKISTLSSENKIISFKEMNPPDNIKDTKSDIIFFQRSVPGHDNKMQFESSSYEGYFLASEKERDLFKLILKKEDELGDRSIMFTVQNED ) = 0.1
